# IC50 values compiled below
target.of.assay: butyrylcholinesterase (BChE) derived from human (Homo sapiens, UniProt P06276)
Sequence (P06276 29-602): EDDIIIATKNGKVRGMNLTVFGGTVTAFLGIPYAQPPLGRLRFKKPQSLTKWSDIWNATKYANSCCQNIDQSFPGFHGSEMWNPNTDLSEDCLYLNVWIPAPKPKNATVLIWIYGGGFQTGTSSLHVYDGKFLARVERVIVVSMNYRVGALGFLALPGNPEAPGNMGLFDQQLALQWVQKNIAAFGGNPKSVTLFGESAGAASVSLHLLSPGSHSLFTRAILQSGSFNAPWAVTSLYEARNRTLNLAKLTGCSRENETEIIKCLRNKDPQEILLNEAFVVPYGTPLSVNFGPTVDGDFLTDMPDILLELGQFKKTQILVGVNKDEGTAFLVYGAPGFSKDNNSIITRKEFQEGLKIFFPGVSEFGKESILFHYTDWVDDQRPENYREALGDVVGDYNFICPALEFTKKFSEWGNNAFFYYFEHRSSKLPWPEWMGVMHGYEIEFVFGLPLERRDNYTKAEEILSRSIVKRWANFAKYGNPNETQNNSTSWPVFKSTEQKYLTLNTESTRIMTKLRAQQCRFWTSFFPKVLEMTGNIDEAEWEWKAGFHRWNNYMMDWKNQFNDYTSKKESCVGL
assay: biochemical
measurement.setup: BChE derived from human, substrate butyrylthiocholine; read-out: IC₅₀ BChE

compound.string	IC50, µM
COc1ccc2c(CCC3CCN(Cc4ccccc4)CC3)noc2c1OC	7.5
O=C(Nc1ccc2c(=O)n(CCCC3CCN(Cc4ccccc4)CC3)oc2c1)c1ccccc1	3.6
CC(=O)N(C)c1ccc2c(CCC3CCN(Cc4ccccc4)CC3)noc2c1	17

----------
target.of.assay: acetylcholinesterase (AChE) derived from human (Homo sapiens, UniProt P22303)
Sequence (P22303 32-614): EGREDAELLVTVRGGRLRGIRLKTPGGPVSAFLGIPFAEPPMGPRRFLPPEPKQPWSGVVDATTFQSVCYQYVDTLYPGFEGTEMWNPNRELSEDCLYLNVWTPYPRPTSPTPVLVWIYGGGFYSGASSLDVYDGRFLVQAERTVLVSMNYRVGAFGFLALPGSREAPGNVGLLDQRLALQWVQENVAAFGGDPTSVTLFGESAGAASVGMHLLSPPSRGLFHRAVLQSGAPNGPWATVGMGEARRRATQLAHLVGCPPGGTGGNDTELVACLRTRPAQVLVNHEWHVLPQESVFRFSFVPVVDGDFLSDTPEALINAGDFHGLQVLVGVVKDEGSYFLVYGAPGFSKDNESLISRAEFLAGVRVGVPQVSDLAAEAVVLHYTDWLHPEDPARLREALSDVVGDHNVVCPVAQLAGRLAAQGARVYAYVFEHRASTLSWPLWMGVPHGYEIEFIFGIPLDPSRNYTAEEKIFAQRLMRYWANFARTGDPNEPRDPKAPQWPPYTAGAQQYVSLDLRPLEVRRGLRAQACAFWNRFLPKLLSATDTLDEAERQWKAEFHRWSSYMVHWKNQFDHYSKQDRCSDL
assay: biochemical

compound	target.of.assay	IC50
CN(C)C(=S)Oc1ccc2c(CCC3CCN(Cc4ccccc4)CC3)noc2c1 [Example 11]	acetylcholinesterase (AChE) derived from human (Homo sapiens, UniProt P22303)	0.5 nM

----------
target.of.assay: sigma receptor
assay: Sigma receptor binding test (3H-DTG, rat cerebral cortex membrane fractions)
measurement.setup: rat cerebral cortex membranes, 3H-DTG 2.5 nM, 25°C 60 minutes, Ki = IC50/[1 + (L/Kd)], Kd 26.3 nM; read-out: Sigma receptor binding assay ³H-DTG (Ki)
pKi: −log10 of the molar value. Structures can show the parent of a compound that is named as a salt.
parameter.measured: pKi

compound	experimental.result
Cc1ccc2c(=O)n(CCC3CCN(CC4CCCCC4)CC3)oc2c1 [Example 227, fumarate]	9.26
Cc1ccc2onc(OCCC3CCN(CC4CCCCC4)CC3)c2c1 [Example 160, fumarate]	9.64
Cc1ccc2on(CCC3CCN(CC4CCCCC4)CC3)c(=O)c2c1 [Example 231, fumarate]	9.38
Cc1ccc2c(OCCC3CCN(CC4CCCCC4)CC3)noc2c1 [Example 164, fumarate]	9.43

----------
# Selectivity IC₅₀ (BChE)/IC₅₀ (AChE) values compiled below
target.of.assay: acetylcholinesterase (AChE) derived from human (Homo sapiens)
assay: biochemical
measurement.setup: IC50 for human BChE divided by IC50 for human AChE

compound	Selectivity IC₅₀ (BChE)/IC₅₀ (AChE)
CC(=O)N(C)c1ccc2c(CCC3CCN(Cc4ccccc4)CC3)noc2c1 [Example 41]	3,700
O=C(Nc1ccc2c(=O)n(CCCC3CCN(Cc4ccccc4)CC3)oc2c1)c1ccccc1 [Example 198]	3,800
CN(C)C(=S)Oc1ccc2c(CCC3CCN(Cc4ccccc4)CC3)noc2c1 [Example 11]	>20,000
COc1ccc2c(CCC3CCN(Cc4ccccc4)CC3)noc2c1OC [Example 19]	4,200

----------
# pIC50 values compiled below
target.of.assay: butyrylcholinesterase (BChE) derived from human (Homo sapiens)
assay: biochemical
pIC50: −log10 of the molar value.

compound.string	qualifier.symbol	pIC50
CN(C)C(=S)Oc1ccc2c(CCC3CCN(Cc4ccccc4)CC3)noc2c1	<	5.00
CC(=O)Nc1ccc2c(CCC3CCN(Cc4ccccc4)CC3)noc2c1	=	5.02
